Items are presented alongside their recorded pIC50.
Target: Steroid sulphatase (STS) (Homo sapiens)
Sequence (P08842 22-583): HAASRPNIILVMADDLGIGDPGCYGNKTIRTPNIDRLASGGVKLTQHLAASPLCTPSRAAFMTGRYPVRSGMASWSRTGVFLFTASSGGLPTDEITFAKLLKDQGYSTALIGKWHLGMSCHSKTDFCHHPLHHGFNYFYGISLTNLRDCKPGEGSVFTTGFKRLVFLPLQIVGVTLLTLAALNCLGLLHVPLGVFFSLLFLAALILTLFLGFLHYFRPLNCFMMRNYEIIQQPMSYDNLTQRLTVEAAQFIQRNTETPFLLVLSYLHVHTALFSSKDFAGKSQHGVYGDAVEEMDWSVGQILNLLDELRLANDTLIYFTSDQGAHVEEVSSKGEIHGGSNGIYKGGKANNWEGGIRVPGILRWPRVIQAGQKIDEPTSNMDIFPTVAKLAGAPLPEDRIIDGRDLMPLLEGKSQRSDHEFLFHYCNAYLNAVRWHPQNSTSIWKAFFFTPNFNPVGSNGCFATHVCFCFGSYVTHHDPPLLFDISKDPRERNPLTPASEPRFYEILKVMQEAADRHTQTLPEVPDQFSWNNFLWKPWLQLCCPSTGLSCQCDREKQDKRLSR
Assay: Inhibition of steroid sulphatase activity in JEG3 cells (Protocol 1)
Settings: intact JEG3 cells, [6,7-3H]oestrone-3-sulphate, 3-4 hours
Method: Assay for Determining STS Activity Using Cancer Cells Inhibition of Steroid Sulphatase Activity in JEG3 Cells Steroid sulphatase activity is measured in vitro using intact JEG3 choriocarcinoma cells. Cells are maintained in Minimal Essential Medium (MEM) containing 20 mM HEPES, 5% foetal bovine serum, 2 mM glutamine, non-essential amino acids and 0.075% sodium bicarbonate. […] Sterioid sulphatase inhibition was measured in accordance with Protocol 1
pIC50: −log10 of the molar value.
Quantity: pIC50

Compound	Observed Value
COc1ccc(-c2cc(N(Cc3ccc(OS(N)(=O)=O)cc3)n3cnnc3)ccc2C#N)cc1 [CAB06077]	7.66
CN1CCN(c2cc(N(Cc3ccc(OS(N)(=O)=O)cc3)n3cnnc3)ccc2C#N)CC1 [Compound 23]	5.55
N#Cc1ccc(N(Cc2ccc(OS(N)(=O)=O)c(Cl)c2)n2cnnc2)cc1-c1ccccc1 [CAB06049]	9.08
N#Cc1ccc(N(Cc2c(F)cc(OS(N)(=O)=O)cc2F)n2cnnc2)cc1-c1ccccc1 [PMW04153]	9.92
N#Cc1ccc(N(Cc2ccccc2)n2cnnc2)cc1-c1ccc(OS(N)(=O)=O)cc1 [CAB06054]	5.54
N#Cc1ccc(N(Cc2ccc(OS(N)(=O)=O)cc2)n2cnnc2)cc1Oc1ccccc1 [Compound 57]	7.21
N#Cc1ccc(N(Cc2ccc(OS(N)(=O)=O)cc2)n2cnnc2)cc1N1CCCCCC1=O [Compound 11]	5.89
N#Cc1ccc(N(Cc2ccc(OS(N)(=O)=O)cc2)n2cnnc2)cc1N1CCCCCC1 [Compound 19]	6.74
N#Cc1ccc(-c2cc(N(Cc3ccc(OS(N)(=O)=O)cc3)n3cnnc3)ccc2C#N)cc1 [CAB06088]	6.62
N#Cc1ccc(N(Cc2ccc(OS(N)(=O)=O)cc2)n2ccnc2)cc1-c1ccccc1 [Compound 32]	8.01
COc1ccc(-c2cc(N(Cc3c(F)cc(OS(N)(=O)=O)cc3F)n3cnnc3)ccc2C#N)cc1 [Compound 36]	10.00
N#Cc1ccc(N(Cc2ccc(OS(N)(=O)=O)cc2)n2cnnc2)cc1-c1ccncc1 [Compound 51]	6.70
N#Cc1ccc(N(Cc2ccc(OS(N)(=O)=O)cc2)n2cnnc2)cc1N1CCCC1 [Compound 15]	7.22
N#Cc1ccc(N(Cc2ccc(OS(N)(=O)=O)cc2)n2cnnc2)cc1-c1ccccc1 [CAB06025]	7.77
N#Cc1ccc(N(Cc2ccc(Br)cc2)n2cnnc2)cc1-c1ccc(OS(N)(=O)=O)cc1 [CAB06059]	5.54
N#Cc1ccc(N(Cc2ccc(OS(N)(=O)=O)cc2)n2cnnc2)cc1-c1ccccc1 [Compound 3]	8.52
N#Cc1ccc(N(Cc2ccc(OS(N)(=O)=O)cc2)n2cnnc2)cc1N1CCCCC1 [Compound 17]	7.37
